Recorded values, source ChEMBL document CHEMBL4825722.

Test: Tmax in rat at 10 mg/kg, po
Assay type: ADME, organism-based
Conditions: in vivo
Result type: Tmax (h)
Field: numeric (h). Do not append units.

Tmax for C[C@@H](c1ccc2ccc(O[C@H]3CC[C@@H](C(F)(F)F)CC3)c(C(F)(F)F)c2c1)N1C2CCC1CC(C(=O)O)C2 (stereo partly specified) is 1.6

====

Assay: Volume of distribution at steady state in cynomolgus monkey at 0.2 mg/kg, iv
Assay type: ADME, organism-based, Macaca fascicularis
Conditions: in vivo, read-out: Vdss
Result type: Vd

Vd for C[C@@H](c1ccc2ccc(O[C@H]3CC[C@@H](C(F)(F)F)CC3)c(C(F)(F)F)c2c1)N1C2CCC1CC(C(=O)O)C2 (stereo partly specified) is 2.4 L/kg

====

Target: Sphingosine 1-phosphate receptor 1 (Homo sapiens)
Sequence (P21453 whole entry): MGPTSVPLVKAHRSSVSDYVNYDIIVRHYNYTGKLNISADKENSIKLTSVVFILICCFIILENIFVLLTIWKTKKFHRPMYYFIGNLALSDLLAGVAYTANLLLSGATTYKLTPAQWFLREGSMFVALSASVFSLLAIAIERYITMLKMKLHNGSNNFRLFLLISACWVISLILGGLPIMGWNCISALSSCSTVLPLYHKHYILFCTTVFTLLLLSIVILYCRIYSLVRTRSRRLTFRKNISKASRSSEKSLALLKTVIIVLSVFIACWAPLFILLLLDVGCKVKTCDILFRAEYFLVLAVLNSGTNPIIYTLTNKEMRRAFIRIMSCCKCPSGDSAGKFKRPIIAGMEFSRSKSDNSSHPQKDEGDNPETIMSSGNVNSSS
pIC50: −log10 of the molar value.
Result type: pIC50

pIC50 for C[C@@H](c1ccc2ccc(O[C@H]3CC[C@@H](C(F)(F)F)CC3)c(C(F)(F)F)c2c1)N1C2CCC1CC(C(=O)O)C2 (stereo partly specified) is < 5.00

====

Test: Oral bioavailability in dog at 1.0 mg/kg
Type: ADME, organism-based, Canis lupus familiaris
Conditions: in vivo
Result type: bioavailability (%)
Field: numeric (%). Do not append units.

bioavailability for C[C@@H](c1ccc2ccc(O[C@H]3CC[C@@H](C(F)(F)F)CC3)c(C(F)(F)F)c2c1)N1C2CCC1CC(C(=O)O)C2 (stereo partly specified) is 69
